Quick reference: melting point of the listed items.

Record excerpt, results attached:
# MOLECULE, VALUE_MEASURED
rows = [
    ("CN(C)CC(=O)OC1CCN(C(=O)[C@H]2CC[C@H](Nc3nccc(-n4ccc5c(OCCCS(C)(=O)=O)cccc54)n3)CC2)CC1", "177 to 178 °C"),
    ("CN[C@H](C(=O)OC1CCN(C(=O)[C@H]2CC[C@H](Nc3nccc(-n4ccc5c(OCCCS(C)(=O)=O)cccc54)n3)CC2)CC1)C(C)C (stereo in doubt)", "105 to 107 °C"),
    ("CN1CCC[C@H]1C(=O)OC1CCN(C(=O)[C@H]2CC[C@H](Nc3nccc(-n4ccc5c(OCCCS(C)(=O)=O)cccc54)n3)CC2)CC1", "127 to 128 °C"),
    ("C[C@H](N)C(=O)OC1CCN(C(=O)[C@H]2CC[C@H](Nc3nccc(-n4ccc5c(OCCCS(C)(=O)=O)cccc54)n3)CC2)CC1", "202.2 to 203.2 °C"),
    ("CC(C)(N)C(=O)OC1CCN(C(=O)[C@H]2CC[C@H](Nc3nccc(-n4ccc5c(OCCCS(C)(=O)=O)cccc54)n3)CC2)CC1", "219 to 220 °C"),
    ("CC[C@@H](C)[C@@H](N)C(=O)OC1CCN(C(=O)[C@H]2CC[C@H](Nc3nccc(-n4ccc5c(OCCCS(C)(=O)=O)cccc54)n3)CC2)CC1", "147 to 148 °C"),
]

Looking up CN1CCC[C@@H]1C(=O)OC1CCN(C(=O)[C@H]2CC[C@H](Nc3nccc(-n4ccc5c(OCCCS(C)(=O)=O)cccc54)n3)CC2)CC1 , I see its melting point listed as 127 to 128 °C

Looking up CN[C@@H](C)C(=O)OC1CCN(C(=O)[C@H]2CC[C@H](Nc3nccc(-n4ccc5c(OCCCS(C)(=O)=O)cccc54)n3)CC2)CC1 , I see its melting point listed as 182 to 183 °C
